# Organism: Rattus norvegicus
# test-method-notes: Open TG-GATES - Regimen: Daily Repeat
# Assay type: toxicity, organism-based, Sprague-Dawley
# Parameters: regimen Daily Repeat, gender Male, age 6 weeks
# condition-description: in vivo, po, 100 mg/kg, […], tissue Plasma, route gavage, dose level Low, time 7 day
readout-name: BUN (mg/dL)
Give bare numbers, in mg/dL.

- compound: "CC(S)C(=O)NCC(=O)O (centres undefined) [TIOPRONIN]"
  BUN (mg/dL): 16.8
- compound: "O=C(O)c1ccccc1Nc1ccccc1 [FENAMIC ACID]"
  BUN (mg/dL): 13.4
- compound: "CCCCNC(=O)NS(=O)(=O)c1ccc(C)cc1 [TOLBUTAMIDE]"
  BUN (mg/dL): 17.6

Here's the next entry for you.
Using the record for CC(=O)[C@@]1(O)CC[C@H]2[C@@H]3C=C(Cl)C4=CC(=O)CC[C@]4(C)[C@H]3CC[C@@]21C [CHLORMADINONE] , report its BUN.
16.2

* * *

# Species on record: Rattus norvegicus
# test-method-notes: Open TG-GATES - Regimen: Daily Repeat
# Assay type: toxicity, organism-based, Sprague-Dawley
# Set-up: regimen Daily Repeat, gender Male, age 6 weeks
# condition-description: in vivo, po, 300 mg/kg, […], tissue Blood, route gavage, dose level Middle, time 7 day
Exercise: for every item that follows, state its recorded MCHC.
Give bare numbers, in %.

- compound: "CC(=O)[C@@]1(O)CC[C@H]2[C@@H]3C=C(Cl)C4=CC(=O)CC[C@]4(C)[C@H]3CC[C@@]21C"
  unit-text: "%"
  MCHC: 34.2
- compound: "O=C(O)c1ccccc1Nc1ccccc1"
  unit-text: "%"
  MCHC: 33.7
- compound: "CCCCNC(=O)NS(=O)(=O)c1ccc(C)cc1 [TOLBUTAMIDE]"
  unit-text: "%"
  MCHC: 33.3

Here's the next entry for you.
Using the record for CC(S)C(=O)NCC(=O)O (centres undefined) , report its MCHC.
34.9

* * *

# Species: Rattus norvegicus
# test-method-notes: Open TG-GATES - Regimen: Daily Repeat
# Assay type: toxicity, organism-based, Sprague-Dawley
# Parameters: regimen Daily Repeat, gender Male, age 6 weeks
# condition-description: in vivo, po, 0 mg/kg, […], tissue Blood, route gavage, dose level Control, time 28 day
readout-name: MCH (pg)
Give bare numbers, in pg.

- compound: "CN(C/C=C/C#CC(C)(C)C)Cc1cccc2ccccc12"
  readout-name: "MCH"
  unit-text: "pg"
  recorded-value: 20.4
- compound: "CCO"
  readout-name: "MCH"
  unit-text: "pg"
  recorded-value: 19.1
- compound: "NS(=O)(=O)c1cc(C(=O)O)c(NCc2ccco2)cc1Cl [FUROSEMIDE]"
  readout-name: "MCH"
  unit-text: "pg"
  recorded-value: 19.1
- compound: "CC(S)C(=O)NCC(=O)O (stereo unspecified)"
  readout-name: "MCH"
  unit-text: "pg"
  recorded-value: 19.6
- compound: "CN(CCOc1ccc(CC2SC(=O)NC2=O)cc1)c1ccccn1.O=C(O)/C=C\\C(=O)O (stereo unspecified) [ROSIGLITAZONE MALEATE]"
  readout-name: "MCH"
  unit-text: "pg"
  recorded-value: 19.5
- compound: "CCN(CC)C(=S)SSC(=S)N(CC)CC"
  readout-name: "MCH"
  unit-text: "pg"
  recorded-value: 19.5
- compound: "CC(=O)[C@@]1(O)CC[C@H]2[C@@H]3C=C(Cl)C4=CC(=O)CC[C@]4(C)[C@H]3CC[C@@]21C"
  readout-name: "MCH"
  unit-text: "pg"
  recorded-value: 19.5
- compound: "Nc1ccc(Cc2ccc(N)cc2)cc1"
  readout-name: "MCH"
  unit-text: "pg"
  recorded-value: 20.2
- compound: "O=C(O)c1ccccc1Nc1ccccc1"
  readout-name: "MCH"
  unit-text: "pg"
  recorded-value: 19.4
- compound: "O=c1ccc2ccccc2o1"
  readout-name: "MCH"
  unit-text: "pg"
  recorded-value: 19.6

Using the record for CCCCNC(=O)NS(=O)(=O)c1ccc(C)cc1 [TOLBUTAMIDE] , report its MCH.
19.4
